For each record, write down the corresponding T/C.
system: BDF1 mice, Adenocarcinoma 755 s.c., tumor weight T/C; assay: NCI In Vivo Anticancer Drug Screen. Data for tumor model Adenocarcinoma 755 (subcutaneous) in B6D2F1 (BDF1) mice; conditions: endpoint: mean tumor weight; dose: 3.5 mg/kg/injection; schedule: Q01DX011 (ip); vehicle: carboxymethylcellulose (CMC); higher = larger tumour

>>> print(df.to_string())
                                   compound                            assayed_target  measured_metric           result
0                 O=P(N1CCCCC1)(N1CC1)N1CC1  BDF1 mice, Adenocarcinoma 755 s.c., tumor weight T/C              T/C  92 % of control
1                 CCOC(=O)Sc1ncnc2nc[nH]c12  BDF1 mice, Adenocarcinoma 755 s.c., tumor weight T/C              T/C   4 % of control
2  O=C1NC(=O)C2(CCCc3ccc(N(CCCl)CCCl)cc32)N1 (centres undefined)  BDF1 mice, Adenocarcinoma 755 s.c., tumor weight T/C              T/C  86 % of control

Note: attention shifts to another entry.
Complete the entry with T/C for "O=C(O)c1cc2ccccc2c2cccc([N+](=O)[O-])c12" 89 % of control

====

tested on: BDF1 mice, Adenocarcinoma 755 s.c., tumor weight T/C; experiment: NCI In Vivo Anticancer Drug Screen. Data for tumor model Adenocarcinoma 755 (subcutaneous) in B6D2F1 (BDF1) mice; conditions: endpoint: mean tumor weight; dose: 300.0 mg/kg/injection; schedule: Q01DX011 (ip); vehicle: methylcellulose (MC); higher = larger tumour
For each record, write down the corresponding T/C.

>>> print(df.to_string())
                                 molecule           result
0  CC(C)CCS(=O)(=O)OCCCCOS(=O)(=O)CCC(C)C  60 % of control
1      CC(C)Cn1cnc2c(SCc3ccccc3)nc(N)nc21   4 % of control

Record T/C per entry; entries follow.
1. CC(C)Cn1cnc2c(SCc3ccccc3[N+](=O)[O-])nc(N)nc21
2. CSc1nc(N)nc2c1ncn2Cc1ccccc1
3. OCC1OC(n2cnc3c(Cl)ncnc32)C(O)C1O (stereo unspecified)
4. Cc1ccc(CNc2ncnc3[nH]ncc23)cc1C

1. 14 % of control
2. 64 % of control
3. 90 % of control
4. 68 % of control

====

tested on: BDF1 mice, Adenocarcinoma 755 s.c., tumor weight T/C; assay: NCI In Vivo Anticancer Drug Screen. Data for tumor model Adenocarcinoma 755 (subcutaneous) in B6D2F1 (BDF1) mice; settings: endpoint: mean tumor weight; dose: 20.0 mg/kg/injection; schedule: Q01DX011 (ip); vehicle: carboxymethylcellulose (CMC); higher = larger tumour
For each record, write down the corresponding T/C.

Record T/C per entry; entries follow.
1. O=C(O)C(O)C(O)C(O)C(O)CO.O=C(O)C(O)C(O)C(O)C(O)CO.O=C(O)C(O)C(O)C(O)C(O)CO.[Ga] (stereo unspecified)
2. [Cl][Pt+2]([Cl])([Cl])[Cl].[Na+].[S-]c1ncnc2nc[nH]c12.[S-]c1ncnc2nc[nH]c12
3. CC1CCOS(=O)O1 (stereo unspecified)
4. CCc1c(CC(=O)O)c2cc(C)ccc2n1Cc1ccc(Cl)cc1
5. CCCN(C)/N=N/c1nc[nH]c1C(N)=O

["64 % of control", "1 % of control", "76 % of control", "87 % of control", "39 % of control"]

Complete the entry with T/C for "Cc1cc(=O)c2c(C)cccc2[nH]1" 105 % of control
